- testedSystem: furin, P09958;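 further: purified furin at 1:10 enzyme:substrate in 50 mM HEPES pH 7.5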
- Sequence (P09958 whole entry): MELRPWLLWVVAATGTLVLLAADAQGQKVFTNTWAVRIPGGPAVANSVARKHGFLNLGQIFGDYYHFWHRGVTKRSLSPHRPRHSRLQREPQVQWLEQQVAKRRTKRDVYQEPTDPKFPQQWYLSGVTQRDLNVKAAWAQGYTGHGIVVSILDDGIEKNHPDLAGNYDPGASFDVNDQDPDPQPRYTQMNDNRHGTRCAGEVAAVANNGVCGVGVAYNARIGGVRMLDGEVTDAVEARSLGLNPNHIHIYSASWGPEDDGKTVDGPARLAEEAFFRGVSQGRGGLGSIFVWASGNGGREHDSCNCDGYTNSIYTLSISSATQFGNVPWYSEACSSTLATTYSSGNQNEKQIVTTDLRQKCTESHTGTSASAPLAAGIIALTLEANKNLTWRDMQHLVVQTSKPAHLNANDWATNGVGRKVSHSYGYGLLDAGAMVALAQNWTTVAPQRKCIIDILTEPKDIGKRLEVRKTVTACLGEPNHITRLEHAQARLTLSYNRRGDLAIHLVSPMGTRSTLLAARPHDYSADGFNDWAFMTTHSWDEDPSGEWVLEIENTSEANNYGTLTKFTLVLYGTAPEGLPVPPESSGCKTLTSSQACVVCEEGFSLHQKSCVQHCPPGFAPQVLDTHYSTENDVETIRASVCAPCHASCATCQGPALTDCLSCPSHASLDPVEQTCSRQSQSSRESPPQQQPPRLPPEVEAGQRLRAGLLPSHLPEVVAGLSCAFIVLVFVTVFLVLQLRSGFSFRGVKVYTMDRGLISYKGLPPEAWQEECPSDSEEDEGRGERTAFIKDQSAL
- testDescription: furin cleavage Z-score vs untreated control; higher = more cleavage, active = 3.5 or more, inactive = 1 or less, 8 variable residues between constant flanks
- protocolConditions: 7.5 min
The other results are listed elsewhere or left out. The true hit rate is not given.
Would you mind classing the entries by furin cleavage Z-score? Ranges: bottom range: < -0.4; center range: ≥ -0.4 and < 1; top range: ≥ 1

// known answers, use as guide
>>> print(df.to_string())
                    biosequence  qualitativelabel
0  CAREKRQAKHAGNASASA [FS-2255]         top range
1    CALVALGINAAGNASASA [HC864]         top range
2  CAHLERHKRVAGNASASA [FS-1631]         top range
3    CATYGKFLADAGNASASA [HC808]      center range
4   CAGAARLPRGAGNASASA [FS-777]      center range

QUERY: Record CAEWVTSTWVAGNASASA [HC2168] — which class?
RESULT: center range
